# Lookup of reported efficacy keyed by entry
- Test system: Tetranychus urticae
- Method Summary: Tetranychus urticae spray test, OP-resistant (bean leaf discs)
- Assay type: in vivo
- Condition Set: 100 g/ha; after 6 days
Give just the numeric value; % need not be written.

[
  {
    "Mol Smiles": "CCC(=O)NCc1cc(-c2cnn(-c3c(Cl)cc(C(F)(C(F)(F)F)C(F)(F)F)cc3C(F)(F)F)c2)ccc1F",
    "Units Of Measure": "%",
    "efficacy": 90
  },
  {
    "Mol Smiles": "CC(=O)NCc1cccc(-c2cnn(-c3c(C)cc(C(F)(C(F)(F)F)C(F)(F)F)cc3C)c2)c1",
    "Units Of Measure": "%",
    "efficacy": 100
  },
  {
    "Mol Smiles": "CC(=O)NCc1cccc(-c2cnn(-c3c(Cl)cc(C(F)(C(F)(F)F)C(F)(F)F)cc3C#N)c2)c1",
    "Units Of Measure": "%",
    "efficacy": 90
  },
  {
    "Mol Smiles": "CC(=O)NCc1cc(-c2cnn(-c3c(Cl)cc(C(F)(C(F)(F)F)C(F)(F)F)cc3C(F)F)c2)ccc1F",
    "Units Of Measure": "%",
    "efficacy": 100
  },
  {
    "Mol Smiles": "CC(=O)N(C)Cc1cc(-c2cnn(-c3c(Cl)cc(C(F)(C(F)(F)F)C(F)(F)F)cc3OC(F)(F)F)c2)ccc1Cl",
    "Units Of Measure": "%",
    "efficacy": 100
  },
  {
    "Mol Smiles": "CC(=O)NCc1cc(-c2cnn(-c3c(Cl)cc(S(=O)(=O)C(F)(F)F)cc3Cl)c2)ccc1Cl",
    "Units Of Measure": "%",
    "efficacy": 100
  },
  {
    "Mol Smiles": "CCC(=O)NCc1cc(-c2cnn(-c3c(Cl)cc(C(F)(C(F)(F)F)C(F)(F)F)cc3SC)c2)ccc1F",
    "Units Of Measure": "%",
    "efficacy": 100
  },
  {
    "Mol Smiles": "CC(=S)NCc1cc(-c2cnn(-c3c(Cl)cc(C(F)(C(F)(F)F)C(F)(F)F)cc3Cl)c2)ccc1Cl",
    "Units Of Measure": "%",
    "efficacy": 100
  }
]

Ask: Given the compound CCC(=O)NCc1cc(-c2cnn(-c3c(Cl)cc(C(F)(C(F)(F)F)C(F)(F)F)cc3C(F)F)c2)ccc1F , what is its reported efficacy?
Result: 100

Ask: Field entry: CC(=O)NCc1cc(-c2cnn(-c3c(Cl)cc(C(F)(C(F)(F)F)C(F)(F)F)cc3Cl)c2)cnc1Cl
Result: 90

Ask: Field entry: CC(=O)NCc1cc(-c2cnn(-c3c(Cl)cc(C(F)(C(F)(F)F)C(F)(F)F)cc3Cl)c2)ccc1C
Result: 100

Ask: Field entry: CC(=O)NCc1cc(-c2cnn(-c3c(Cl)cc(C(F)(C(F)(F)F)C(F)(F)F)cc3S(C)(=O)=O)c2)ccc1F
Result: 100

Ask: Field entry: O=C(NCc1cc(-c2cnn(-c3c(Cl)cc(C(F)(C(F)(F)F)C(F)(F)F)cc3C(F)F)c2)ccc1F)C1CC1
Result: 100

Ask: Field entry: CS(=O)(=O)c1cc(C(F)(C(F)(F)F)C(F)(F)F)cc(Cl)c1-n1cc(-c2ccc(F)c(CNC(=O)C3CC3)c2)cn1
Result: 100

Ask: Field entry: CCC(=O)NCc1cc(-c2cnn(-c3c(C)cc(C(F)(C(F)(F)F)C(F)(F)F)cc3C)c2)ccc1Cl
Result: 100

Ask: Field entry: CCC(=O)NCc1cc(-c2cnn(-c3c(Cl)cc(C(F)(C(F)(F)F)C(F)(F)F)cc3S(C)(=O)=O)c2)ccc1F
Result: 70

Ask: Field entry: CCC(=O)NCc1cc(-c2cnn(-c3c(Cl)cc(C(F)(C(F)(F)F)C(F)(F)F)cc3Cl)c2)c(F)cc1Cl
Result: 100

Ask: Field entry: CC(=O)NCc1c(F)ccc(-c2cnn(-c3c(Cl)cc(C(F)(C(F)(F)F)C(F)(F)F)cc3OC(F)F)c2)c1F
Result: 100

Ask: Field entry: CCC(=O)NCc1cc(-c2cnn(-c3c(Cl)cc(C(F)(C(F)(F)F)C(F)(F)F)cc3Br)c2)ccc1Cl
Result: 90

Ask: Field entry: CCC(=O)NCc1cc(-c2cnn(-c3c(Cl)cc(C(F)(C(F)(F)F)C(F)(F)F)cc3Cl)c2)ccc1Br
Result: 100
